# assayed.target: GCK (human)
# assay.overview: radiometric filter-binding kinase assay
# condition.parameters: compound 1.0 µM
assay.readout: residual activity (%)

- molecule: "NC(=O)c1cc(-c2ccnc(NC3CCCCC3)c2)nc(N2CCNCC2)c1"
  residual activity (%): 82
- molecule: "O=c1c(O)c(-c2ccc(O)c(O)c2)oc2cc(O)c(O)c(O)c12"
  residual activity (%): 93
- molecule: "Cc1cc(NC(=O)c2cccc(NC(=O)/C=C/CN(C)C)c2)ccc1Nc1nccc(-c2cccnc2)n1"
  residual activity (%): 73
- molecule: "Cc1ccc(=O)n(-c2ccccc2)c1"
  residual activity (%): 106
- molecule: "NC(=O)c1c(NC(=O)C2CC2)sc2c1CCCC2"
  residual activity (%): 69

1. COc1cc(O)c2c(c1)/C=C/C[C@H](O)[C@H](O)C(=O)/C=C\C[C@H](C)OC2=O
2. O=C(O)c1ccc(-c2c[nH]c3ncc(-c4ccccc4)cc23)cc1C1CCCC1
For the pair 1 and 2 , which entry has the numerically smaller recorded residual activity? Return value: the label identifying the chosen record.
2
(2: 3%, 1: 80%)

A. NS(=O)(=O)OC[C@@H]1C[C@@H](n2ccc3c(N[C@H]4CCc5ccccc54)ncnc32)C[C@@H]1O
B. c1ccc2c(-c3cnn4cc(-c5ccc(N6CCNCC6)cc5)cnc34)ccnc2c1
Please tell me which of the two, A or B , has the higher reported residual activity value. State your choice using its label.
A

A. NC1(c2ccc(-c3nc4ccn5c(=O)[nH]nc5c4cc3-c3ccccc3)cc2)CCC1
B. COc1cc2ncn(-c3cc(OCc4ccccc4S(C)(=O)=O)c(C#N)s3)c2cc1OC
Compare A and B by numeric residual activity and name the larger one. Write down the label attached to your selection.
A
(A: 97%, B: 24%)

I. O=C(O)c1cc(N=Nc2ccc(S(=O)(=O)Nc3ccccn3)cc2)ccc1O
II. Cc1cccc(-c2nn(C(=S)Nc3ccccc3)cc2-c2ccnc3ccccc23)n1
III. Oc1ccc2ccccc2c1SSc1c(O)ccc2ccccc12
IV. COc1ccc(N(C(=O)Nc2c(C)cccc2C)c2cc(Nc3ccc(N4CCN(C)CC4)cc3)ncn2)c(OC)c1
V. CNC(=O)C1[C@H]2O[C@@](C)([C@@H]1N)n1c3ccccc3c3c4c(c5c6ccccc6n2c5c31)C(=O)NC4 (some centres undefined)
Ascending by residual activity, please: list the molecules accordingly. Would you mind listing the labels in the order asked for?
V, IV, III, II, I

1. CNc1nc(-c2ccc3c(N)n[nH]c3c2)cc(N2C[C@@H](C(=O)NC3CCCCC3)CC[C@H]2C)n1
2. O=C(NCCCNc1nc(Nc2cccc(CN3CCOCC3)c2)ncc1C1CC1)C1CCC1
3. CN(C)C/C=C/C(=O)Nc1cccc(C(=O)Nc2ccc(Nc3nccc(-c4cccnc4)n3)cc2)c1
Rank the 3 molecules: largest residual activity first, smallest last. Show the ranking through the labels, in the order asked for.
1, 2, 3
(1: 97%, 2: 64%, 3: 20%)

1. NCC(=O)Nc1ccc(-n2nc(C(F)(F)F)cc2-c2ccc3c(ccc4ccccc43)c2)cc1
2. CCCCCc1ccc(/C=C/[C@H](O)[C@@H](CO)NC)cc1
Endpoint returns the identifier whose residual activity is numerically larger, either 1 or 2 . Please indicate the selected item by its label.
1

P. O=C(NOCC(O)CO)c1ccc(F)c(F)c1Nc1ccc(I)cc1Cl (centres undefined)
Q. C=C1C(=O)OC2C1CC/C(C)=C/CCC1(C)OC21 (centres undefined)
Field: lower residual activity | Options: P / Q Field: selected label. Fill in the label of the entry you choose.
P
(P: 79%, Q: 116%)

I. N#Cc1c(C2CCNCC2)cc(-c2c(O)cccc2OCC2CC2)nc1N
II. CN1C(=O)[C@@H](Cc2c[nH]c3ccccc23)NC1=S
Which numeric residual activity is bigger, that of I or that of II ? Record your answer as the label of the chosen record.
II
